PROTOCOL_TEXT: Pharmacokinetics study in rats, intravenous
Assay type: in vivo, SD rats
TEST_CONDITIONS: male, SD, plasma; rat, IV, 10 mg/kg; read-out: MRT
READOUT: MRT (h)

Example molecules with recorded MRT:
MOLECULE | MRT / h
COc1cc(Br)cc(OCC2(CN)CC2)c1-c1cc(Nc2cnc(C#N)cn2)n[nH]1 [Compound 15] | 3.8
COc1cc(Cl)cc(OCCCN)c1-c1cc(Nc2cnc(C#N)cn2)n[nH]1 [Compound 4] | 3.1

[a] COc1cc(Cl)cc(OCC2(CN)CC2)c1-c1cc(Nc2cnc(C#N)cn2)n[nH]1 [Compound 14]
[b] COc1cc(Br)cc(OCCCN)c1-c1cc(Nc2cnc(C#N)cn2)n[nH]1 [Compound 5]
Among a and b , which shows a numerically higher MRT result? Refer to your chosen item by its label in the answer. a

* * *

READOUT: melting point

Example compounds with recorded melting point:
SMILES | READOUT | OBS_VALUE
COc1c(F)ccc(OCCCN)c1-c1cc(Nc2cnc(C#N)cn2)n[nH]1 | melting point | 80 to 84 °C
COc1cc(OC)c(-c2cc(Nc3cnc(C#N)cn3)n[nH]2)c(OCCCN)c1 | melting point | 145 to 151 °C
COc1cc(C)cc(OCCCN)c1-c1cc(Nc2cnc(C#N)cn2)n[nH]1 | melting point | 188 to 191 °C

Bench note: what melting point did COc1cc(Br)cc(OCCCN)c1-c1cc(Nc2cnc(C#N)cn2)n[nH]1 show? 165 to 175 °C

Bench note: what melting point did COc1cc(Cl)cc(OCC2(CN)CC2)c1-c1cc(Nc2cnc(C#N)cn2)n[nH]1 show? 232 to 236 °C

* * *

PROTOCOL_TEXT: Pharmacokinetics study in rats, intravenous
Format: in vivo, SD rats
TEST_CONDITIONS: male, SD, rat, in vivo, iv, 10 mg/kg
READOUT: clearance (mL/min/kg)
Please state the figure in mL/min/kg; there is no need to write the unit.

Bench note: what clearance did COc1cc(F)cc(OCCCN)c1-c1cc(Nc2cnc(C#N)cn2)n[nH]1 show? 38.3

* * *

PROTOCOL_TEXT: Human liver S9 metabolic stability
Assay type: in vitro ADME
TEST_CONDITIONS: 15 min, 1 μM, 37° C.
READOUT: Percentage Remaining % (%)

SMILES | READING_UNIT | OBS_VALUE
COc1cc(Br)cc(OCC2(CN)CC2)c1-c1cc(Nc2cnc(C#N)cn2)n[nH]1 | % | 93.89
COc1cc(F)cc(OCC2(CN)CC2)c1-c1cc(Nc2cnc(C#N)cn2)n[nH]1 | % | 99.08
COc1cc(F)cc(OCCCN)c1-c1cc(Nc2cnc(C#N)cn2)n[nH]1 | % | 94.32
COc1cc(Cl)cc(OCCCN)c1-c1cc(Nc2cnc(C#N)cn2)n[nH]1 | % | 94.83

* * *

SUBJECT_OF_TEST: Chk2 (Homo sapiens, UniProt O96017)
Sequence (O96017 whole entry): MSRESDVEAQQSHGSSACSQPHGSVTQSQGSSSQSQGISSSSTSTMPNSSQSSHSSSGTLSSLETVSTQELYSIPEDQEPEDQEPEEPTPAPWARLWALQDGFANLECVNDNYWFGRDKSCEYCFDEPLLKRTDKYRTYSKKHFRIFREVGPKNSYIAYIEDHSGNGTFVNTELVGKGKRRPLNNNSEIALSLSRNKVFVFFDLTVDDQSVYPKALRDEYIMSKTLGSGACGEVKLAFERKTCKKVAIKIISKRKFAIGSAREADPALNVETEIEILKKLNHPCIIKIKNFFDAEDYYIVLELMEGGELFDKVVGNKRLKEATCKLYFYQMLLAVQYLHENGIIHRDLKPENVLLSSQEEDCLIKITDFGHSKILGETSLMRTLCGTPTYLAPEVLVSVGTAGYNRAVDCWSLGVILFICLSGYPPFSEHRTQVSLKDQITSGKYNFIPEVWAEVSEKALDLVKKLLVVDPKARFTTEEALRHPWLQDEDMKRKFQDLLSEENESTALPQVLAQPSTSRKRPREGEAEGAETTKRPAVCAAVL
READOUT: IC50

MOLECULE | SUBJECT_OF_TEST | IC50
COc1cc(F)cc(OCCCN)c1-c1cc(Nc2cnc(C#N)cn2)n[nH]1 | Chk2 (Homo sapiens, UniProt O96017) | 50 to 100 nM
COc1cc(Br)cc(OCC2(CN)CC2)c1-c1cc(Nc2cnc(C#N)cn2)n[nH]1 | Chk2 (Homo sapiens, UniProt O96017) | 10 to 50 nM
N[C@@H]1CCCN(c2c(Br)cnc3[nH]cc(NC(=O)C4CC4)c23)C1 [GDC-0575, reference compound] | Chk2 (Homo sapiens, UniProt O96017) | 50 to 100 nM
COc1cc(C)cc(OCC2(CN)CC2)c1-c1cc(Nc2cnc(C#N)cn2)n[nH]1 | Chk2 (Homo sapiens, UniProt O96017) | 10 to 50 nM
COc1cc(Cl)cc(OCCCN)c1-c1cc(Nc2cnc(C#N)cn2)n[nH]1 | Chk2 (Homo sapiens, UniProt O96017) | 50 to 100 nM

Moving on to another molecule below.
Bench note: what IC50 did COc1cc(Cl)cc(OCC2(CN)CC2)c1-c1cc(Nc2cnc(C#N)cn2)n[nH]1 show? 10 to 50 nM

* * *

PROTOCOL_TEXT: Human liver S9 metabolic stability
Format: in vitro ADME
TEST_CONDITIONS: 45 min, 1 μM, 37° C.
Protocol: Compounds (1 μM) were incubated with human liver S9 (from BD Gentest) at final liver microsomal protein concentration of 0.5 mg/mL for 0, 5, 15, 30, 45 min at 37° C. The remaining compounds in the reaction were measured by LC-MS/MS. The half-life (T½) 0.693/K (K is the rate constant from a plot of ln [concentration] vs. incubation time).
READOUT: Percentage Remaining % (%)

COMPOUND | Percentage Remaining % / %
COc1cc(Cl)cc(OCCCN)c1-c1cc(Nc2cnc(C#N)cn2)n[nH]1 [Compound 4] | 82.67
COc1cc(Br)cc(OCC2(CN)CC2)c1-c1cc(Nc2cnc(C#N)cn2)n[nH]1 [Compound 15] | 87.68
COc1cc(F)cc(OCCCN)c1-c1cc(Nc2cnc(C#N)cn2)n[nH]1 [Compound 3] | 77.05
COc1cc(F)cc(OCC2(CN)CC2)c1-c1cc(Nc2cnc(C#N)cn2)n[nH]1 [Compound 13] | 100.18

* * *

PROTOCOL_TEXT: Pharmacokinetics study in rats, intravenous
Type: in vivo, SD rats
TEST_CONDITIONS: male, SD, plasma; rat, IV, 10 mg/kg; read-out: CL (converted)
READOUT: clearance (mL/min/kg)

SMILES | OBS_VALUE
COc1cc(Br)cc(OCCCN)c1-c1cc(Nc2cnc(C#N)cn2)n[nH]1 | 60
COc1cc(Cl)cc(OCCCN)c1-c1cc(Nc2cnc(C#N)cn2)n[nH]1 | 78.3
COc1cc(Cl)cc(OCC2(CN)CC2)c1-c1cc(Nc2cnc(C#N)cn2)n[nH]1 | 56.7
COc1cc(Br)cc(OCC2(CN)CC2)c1-c1cc(Nc2cnc(C#N)cn2)n[nH]1 | 63.3

* * *

PROTOCOL_TEXT: Human liver S9 metabolic stability
Format: in vitro ADME
TEST_CONDITIONS: 5 min, 1 μM, 37° C.
READOUT: Percentage Remaining % (%)

SMILES | READING_UNIT | Percentage Remaining %
COc1cc(F)cc(OCCCN)c1-c1cc(Nc2cnc(C#N)cn2)n[nH]1 | % | 96.98
COc1cc(Cl)cc(OCCCN)c1-c1cc(Nc2cnc(C#N)cn2)n[nH]1 | % | 97.57
COc1cc(F)cc(OCC2(CN)CC2)c1-c1cc(Nc2cnc(C#N)cn2)n[nH]1 | % | 98.69
COc1cc(Br)cc(OCC2(CN)CC2)c1-c1cc(Nc2cnc(C#N)cn2)n[nH]1 | % | 94.64

* * *

PROTOCOL_TEXT: Pharmacokinetics study in rats, intravenous
Assay type: in vivo, SD rats
TEST_CONDITIONS: male, SD, rat, in vivo, iv, 10 mg/kg
READOUT: MRT (h)
Please state the figure in h; there is no need to write the unit.

Bench note: what MRT did COc1cc(F)cc(OCCCN)c1-c1cc(Nc2cnc(C#N)cn2)n[nH]1 show? 2.8

* * *

PROTOCOL_TEXT: in vivo
Set-up: species or system Balb/c nude mice
TEST_CONDITIONS: female, Balb/c nude, mouse, iv, 40 mg/kg, half-life in tumor tissues
READOUT: half-life (h)
Please state the figure in h; there is no need to write the unit.

Bench note: what half-life did COc1cc(F)cc(OCCCN)c1-c1cc(Nc2cnc(C#N)cn2)n[nH]1 show? 14

* * *

# Lookup of reported pIC50 keyed by entry
SUBJECT_OF_TEST: Chk1 (Homo sapiens)
Sequence (O14757 1-476): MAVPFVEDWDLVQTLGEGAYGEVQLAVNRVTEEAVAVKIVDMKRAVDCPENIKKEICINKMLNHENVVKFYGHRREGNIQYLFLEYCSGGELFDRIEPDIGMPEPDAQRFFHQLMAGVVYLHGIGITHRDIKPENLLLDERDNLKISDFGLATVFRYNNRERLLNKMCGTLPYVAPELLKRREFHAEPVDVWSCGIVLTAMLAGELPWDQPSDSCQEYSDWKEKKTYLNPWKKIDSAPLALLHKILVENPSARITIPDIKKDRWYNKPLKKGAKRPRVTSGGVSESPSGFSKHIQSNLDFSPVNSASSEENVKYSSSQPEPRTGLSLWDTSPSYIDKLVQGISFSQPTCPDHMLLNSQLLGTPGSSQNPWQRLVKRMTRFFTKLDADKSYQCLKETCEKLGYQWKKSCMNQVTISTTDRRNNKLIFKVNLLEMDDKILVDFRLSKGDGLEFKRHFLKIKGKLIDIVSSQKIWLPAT
pIC50: −log10 of the molar value.

Example molecules with recorded pIC50:
MOLECULE | pIC50
COc1cc(OC)c(-c2cc(Nc3cnc(C#N)cn3)n[nH]2)c(OCCCN)c1 | 8.00 to 9.00
COc1cc(F)cc(OCC2(CN)CC2)c1-c1cc(Nc2cnc(C#N)cn2)n[nH]1 | ≥ 9.00
COc1cc(F)cc(OCCCN)c1-c1cc(Nc2cnc(C#N)cn2)n[nH]1 | ≥ 9.00
COc1cc(Br)cc(OCCCN)c1-c1cc(Nc2cnc(C#N)cn2)n[nH]1 | ≥ 9.00
CCOC(=O)NCCCOc1cc(F)cc(OC)c1-c1cc(Nc2cnc(C#N)cn2)n[nH]1 | 7.30 to 8.00

Bench note: what pIC50 did CNCC1(COc2c(F)ccc(OC)c2-c2cc(Nc3cnc(C#N)cn3)n[nH]2)CC1 show? 8.00 to 9.00

Bench note: what pIC50 did COc1cc(Cl)cc(OCC2(CN)CC2)c1-c1cc(Nc2cnc(C#N)cn2)n[nH]1 show? ≥ 9.00

Bench note: what pIC50 did COc1cc(OC)c(-c2cc(Nc3cnc(C#N)cn3)n[nH]2)c(OCC2(CN)CC2)c1 show? 8.00 to 9.00

Bench note: what pIC50 did COc1cc(C)cc(OCCCN)c1-c1cc(Nc2cnc(C#N)cn2)n[nH]1 show? ≥ 9.00

Bench note: what pIC50 did N[C@@H]1CCCN(c2c(Br)cnc3[nH]cc(NC(=O)C4CC4)c23)C1 [GDC-0575, reference compound] show? 8.00 to 9.00

Reference source: patent US11116767B2
